tested on: MCF-10A non-tumor mammary epithelial cell line; assay: in vitro; type: cell-based, human; settings: MTT assay, MCF-10A; read-out: Cytotoxicity, IC50, MCF-10A
VALUE_KIND: IC50 (µM)
Give your result in µM as a bare value.

**Q:** Let me know recorded IC50 for C=C(C)CCC[C@]1(C)OC(=O)C23CC=C4[C@@H](CC[C@H]5C(C)(C)[C@@H](O[C@@H]6OC[C@@H](O[C@@H]7O[C@H](CO)[C@@H](O)[C@H](O[C@@H]8O[C@H](COS(=O)(=O)[O-])[C@@H](O)[C@H](OC)[C@H]8O)[C@H]7O)[C@H](O)[C@H]6O[C@@H]6O[C@H](C)[C@@H](O[C@@H]7OC[C@@H](O)[C@H](O[C@@H]8O[C@H](CO)[C@@H](O)[C@H](OC)[C@H]8O)[C@H]7O)[C@H](O)[C@H]6O)CC[C@]45C)[C@]2(C)CC(=O)[C@@H]31.[Na+] (some centres unmarked) [Cladoloside L1 (33), Cladoloside L1] , thanks.
**A:** 17.9

**Q:** Given the compound C=C(C)CCC[C@]1(C)OC(=O)C23CC=C4[C@@H](CC[C@H]5C(C)(C)[C@@H](O[C@@H]6OC[C@@H](O[C@@H]7O[C@H](CO)[C@@H](O)[C@H](O[C@@H]8O[C@H](CO)[C@@H](O)[C@H](OC)[C@H]8O)[C@H]7O)[C@H](O)[C@H]6O[C@@H]6O[C@H](C)[C@@H](O[C@@H]7O[C@H](CO)[C@@H](O)[C@H](O[C@@H]8O[C@H](CO)[C@@H](O)[C@H](OC)[C@H]8O)[C@H]7O)[C@H](O)[C@H]6O)CC[C@]45C)[C@]2(C)CC(=O)[C@@H]31 (some centres unmarked) [Cladoloside M1 (35), cladoloside M1] , write its reported IC50.
**A:** 9.81

**Q:** Consider the compound C=C(C)CCC[C@]1(C)OC(=O)C23CC=C4[C@@H](CC[C@H]5C(C)(C)[C@@H](O[C@@H]6OC[C@@H](O[C@@H]7O[C@H](CO)[C@@H](O)[C@H](O[C@@H]8O[C@H](CO)[C@@H](O)[C@H](OC)[C@H]8O)[C@H]7O)[C@H](O)[C@H]6O[C@@H]6O[C@H](C)[C@@H](O[C@@H]7OC[C@@H](O)[C@H](O[C@@H]8O[C@H](CO)[C@@H](O)[C@H](O)[C@H]8O)[C@H]7O)[C@H](O)[C@H]6O)CC[C@]45C)[C@]2(C)CC(=O)[C@@H]31 (some centres unmarked) [Cladoloside P2 (41), Cladoloside P2] and give its recorded IC50.
**A:** 11.1

###

tested on: MDA-MB-231 triple-negative breast cancer cells; assay: cells; assay type: cell-based, human
VALUE_KIND: IC50

**Q:** Provide only the value of recorded IC50 for C=C(C)CC[C@@H](OC(C)=O)[C@]1(C)OC(=O)C23CC=C4[C@@H](CC[C@H]5C(C)(C)[C@@H](O[C@@H]6OC[C@@H](O[C@@H]7O[C@H](CO)[C@@H](O)[C@H](O[C@@H]8O[C@H](CO)[C@@H](O)[C@H](OC)[C@H]8O)[C@H]7O)[C@H](O)[C@H]6O[C@@H]6O[C@H](C)[C@@H](O[C@@H]7OC[C@@H](O)[C@H](O[C@@H]8O[C@H](CO)[C@@H](O)[C@H](OS(=O)(=O)O)[C@H]8O)[C@H]7O)[C@H](O)[C@H]6O)CC[C@]45C)[C@]2(C)C[C@H](OC(C)=O)[C@@H]31 (some centres unmarked) [Cladoloside T (3)]
**A:** 3.41 µM

**Q:** Supply IC50 value. Item: C=C(C)CC[C@@H](OC(C)=O)[C@]1(C)OC(=O)C23CC=C4[C@@H](CC[C@H]5C(C)(C)[C@@H](O[C@@H]6OC[C@@H](O[C@@H]7O[C@H](CO)[C@@H](O)[C@H](O[C@@H]8O[C@H](CO)[C@@H](O)[C@H](OC)[C@H]8O)[C@H]7O)[C@H](O)[C@H]6O[C@@H]6O[C@H](C)[C@@H](O[C@@H]7OC[C@@H](O)[C@H](O[C@@H]8O[C@H](CO)[C@@H](O)[C@H](OC)[C@H]8O)[C@H]7O)[C@H](O)[C@H]6O)CC[C@]45C)[C@]2(C)C[C@H](O)[C@@H]31 (some centres unmarked) [C3 (16), cladoloside C3]
**A:** > 20 µM

###

system: MCF-10A non-tumor mammary epithelial cell line; assay: in vitro; format: cell-based, human
VALUE_KIND: pIC50
Please treat pIC50 as minus the base-10 logarithm of the molar concentration.

**Q:** Provide pIC50, recorded with MCF-10A non-tumor mammary epithelial cell line, of CO[C@@H]1[C@@H](O)[C@H](O[C@@H]2[C@@H](O)[C@H](O[C@@H]3CO[C@@H](O[C@H]4CC[C@]5(C)C6=CCC78C(=O)O[C@@](C)([C@@H](CCC(C)C)OC(C)=O)[C@H]7[C@@H](OC(C)=O)C[C@@]8(C)[C@@H]6CC[C@H]5C4(C)C)[C@H](O[C@@H]4O[C@H](C)[C@@H](O[C@@H]5OC[C@@H](O)[C@H](O[C@@H]6O[C@H](CO)[C@@H](O)[C@H](OS(=O)(=O)O)[C@H]6O)[C@H]5O)[C@H](O)[C@H]4O)[C@H]3O)O[C@H](CO)[C@H]2O)O[C@H](CO)[C@H]1O (some centres unmarked) [Cladoloside T1 (4)]
**A:** 5.08

###

tested on: MCF-7 human breast cancer cells; assay: cells; type: cell-based
pIC50: −log10 of the molar value.
Provide the recorded pIC50 for the entries that follow.

**Q:** Return the recorded pIC50 value; entry: CO[C@@H]1[C@@H](O)[C@H](O[C@@H]2[C@@H](O)[C@H](O[C@H]3[C@H](O)[C@@H](O)[C@H](O[C@H]4[C@H](O[C@H]5CC[C@]6(C)C7=CCC89C(=O)O[C@@](C)([C@@H](CCC(C)C)OC(C)=O)[C@H]8[C@@H](OC(C)=O)C[C@@]9(C)[C@@H]7CC[C@H]6C5(C)C)OC[C@@H](O)[C@@H]4O)O[C@@H]3C)OC[C@H]2O)O[C@H](CO)[C@H]1O (stereo partly drawn)
**A:** < 4.70

**Q:** State, in one line, measured pIC50 of C=C(C)CC[C@@H](OC(C)=O)[C@]1(C)OC(=O)C23CC=C4[C@@H](CC[C@H]5C(C)(C)[C@@H](O[C@@H]6OC[C@@H](O[C@@H]7O[C@H](CO)[C@@H](O)[C@H](O[C@@H]8O[C@H](CO)[C@@H](O)[C@H](OC)[C@H]8O)[C@H]7O)[C@H](O)[C@H]6O[C@@H]6O[C@H](C)[C@@H](O[C@@H]7OC[C@@H](O)[C@H](O[C@@H]8O[C@H](CO)[C@@H](O)[C@H](OC)[C@H]8O)[C@H]7O)[C@H](O)[C@H]6O)CC[C@]45C)[C@]2(C)C[C@H](O)[C@@H]31 (stereo partly drawn) [C3 (16), cladoloside C3]
**A:** < 4.70

**Q:** Provide one value: measured pIC50 of C=C(C)CC[C@@H](OC(C)=O)[C@]1(C)OC(=O)C23CC=C4[C@@H](CC[C@H]5C(C)(C)[C@@H](O[C@@H]6OC[C@@H](O[C@@H]7O[C@H](CO)[C@@H](O)[C@H](O)[C@H]7O)[C@H](O)[C@H]6O[C@@H]6O[C@H](C)[C@@H](O[C@@H]7OC[C@@H](O)[C@H](O[C@@H]8O[C@H](COS(=O)(=O)[O-])[C@@H](O)[C@H](OC)[C@H]8O)[C@H]7O)[C@H](O)[C@H]6O)CC[C@]45C)[C@]2(C)C[C@H](OC(C)=O)[C@@H]31.[Na+] (stereo partly drawn) [I2 (29), cladoloside I2]
**A:** < 4.70

###

tested on: MCF-7 human breast cancer cells; assay: cells; type: cell-based; conditions: MTT assay, MCF-7; read-out: Cytotoxicity, IC50, MCF-7;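 note: IC50 values, including those behind the selectivity ratio, derive from formazan absorbance at 570 nm, tested in triplicate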
Task for the reader: assign each of the following compounds its reported IC50.

**Q:** Let me know recorded IC50 for C=C(C)CCC[C@]1(C)OC(=O)C23CC=C4[C@@H](CC[C@H]5C(C)(C)[C@@H](O[C@@H]6OC[C@@H](O)[C@H](O)[C@H]6O[C@@H]6O[C@H](C)[C@@H](O[C@@H]7OC[C@@H](O)[C@H](O[C@@H]8O[C@H](CO)[C@@H](O)[C@H](OC)[C@H]8O)[C@H]7O)[C@H](O)[C@H]6O)CC[C@]45C)[C@]2(C)C[C@H](OC(C)=O)[C@@H]31 (stereo partly drawn) [A3 (7), cladoloside A3] , thanks.
**A:** > 20 µM

**Q:** Give the reported IC50 for this compound. C=C(C)CC[C@@H](OC(C)=O)[C@]1(C)OC(=O)C23CC=C4[C@@H](CC[C@H]5C(C)(C)[C@@H](O[C@@H]6OC[C@@H](O)[C@H](O)[C@H]6O[C@@H]6O[C@H](C)[C@@H](O[C@@H]7O[C@H](CO)[C@@H](O)[C@H](O[C@@H]8O[C@H](CO)[C@@H](O)[C@H](OC)[C@H]8O)[C@H]7O)[C@H](O)[C@H]6O)CC[C@]45C)[C@]2(C)C[C@H](OC(C)=O)[C@@H]31 (stereo partly drawn) [A6 (10), cladoloside A6]
**A:** > 20 µM

**Q:** Give the value of IC50 reported for the following: C=C(C)CC[C@@H](OC(C)=O)[C@]1(C)OC(=O)C23CC=C4[C@@H](CC[C@H]5C(C)(C)[C@@H](O[C@@H]6OC[C@@H](O)[C@H](O)[C@H]6O[C@@H]6O[C@H](C)[C@@H](O[C@@H]7OC[C@@H](O)[C@H](O[C@@H]8O[C@H](CO)[C@@H](O)[C@H](OC)[C@H]8O)[C@H]7O)[C@H](O)[C@H]6O)CC[C@]45C)[C@]2(C)C[C@H](OC(C)=O)[C@@H]31 (stereo partly drawn) [A2 (6), cladoloside A2]
**A:** > 20 µM
